The reported measurements were obtained from the supplement of paper PMC10567573.

B1: SLC35F2 (parent)
chain: SFMPLVIKVTSATSVNLGILTADL

- Variants of: B1
- Test method notes: protein stability index of a GFP-peptide fusion (GPS, HEK-293T) (PSI 1-6); higher = more stable;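 further: lentivirally expressed fusions sorted by FACS into six bins by GFP to DsRed ratio, PSI derived from sequencing read proportions per bin multiplied by bin number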
- Condition: c terminus: a fixed tail appended
Quantity: protein stability index

// below: answered variants
F2K    3
P4W    3.07

Turning now to a further variant:
// query Consider the variant `S1F` and give its measured protein stability index.
// result 3.08
